System: NCI-H23 lung
Experiment: NCI tumour cell line growth inhibition, 48 h
Known GI50 of a selection of compounds
measured property: GI50

>>> result("c1ccc([CH2][Sn]([CH2]c2ccccc2)([S]c2cccc3cccnc23)[S]c2cccc3cccnc23)cc1")
"273 nM"
>>> result("CCCCc1ccc2nc(NC(=O)OC)[nH]c2c1")
"142 nM"
>>> result("Cc1cc(Cl)n2c(nc3ccccc32)c1C#N")
"422 nM"
>>> result("CCOC(=O)c1cnc2ccc(Cl)cc2c1NCCCN(C)C")
"32700 nM"
>>> result("O=C1CCC/C=C\\C[C@H]2C=C(Cl)C(=O)/C2=C/C[C@H](CCCCC(F)(F)F)OC(=O)CCC/C=C\\C[C@H]2C=C(Cl)C(=O)/C2=C/C[C@H](CCCCC(F)(F)F)O1")
"236 nM"
>>> result("COc1ccc(C(=O)CC2(O)C(=O)Nc3c(Cl)ccc(Cl)c32)cc1 (centres undefined)")
"4610 nM"
>>> result("CCc1cc(C(N)=O)ccc1-n1nc(C(C)C)c2c(-n3cnc(-c4cnn(C)c4)c3)ccnc21")
"1140 nM"
>>> result("C(=N\\Nc1ncc(-c2cc3cc4c(cc3o2)OCO4)s1)/c1c[nH]c2ccccc12")
"1770 nM"
>>> result("N#Cc1c(N)nn(C(=O)c2ccc(NC(=O)c3ccccn3)cc2)c1-c1ccc(Cl)cc1")
"3770 nM"

----------
Known TGI of a selection of compounds
Tested on: UACC-257 melanoma
Test: NCI tumour cell line growth inhibition, 48 h
measured property: TGI

>>> result("[N-]=[N+]=Nc1ccc(S(=O)(=O)Oc2cc(OS(=O)(=O)c3ccc(N=[N+]=[N-])cc3)cc(OS(=O)(=O)c3ccc(N=[N+]=[N-])cc3)c2)cc1")
"> 100 µM"
>>> result("CCN1CCN(C(=O)[C@]23CC[C@@H](C)[C@H](C)[C@@H]2C2=CC[C@@H]4[C@@]5(C)C/C(=C/c6cccnc6)C(=O)C(C)(C)[C@@H]5CC[C@@]4(C)[C@]2(C)CC3)CC1")
"5.95 µM"
>>> result("COC(=O)C1=Cc2cc3c(cc2[C@H](c2ccc4c(c2)OCO4)C1C(=O)OC)OCO3 (some centres undefined)")
"> 100 µM"
>>> result("Clc1ccc(Cl)c(N/N=C\\c2c[nH]c3ccccc23)c1")
"28.9 µM"
>>> result("COc1ccc(NC(=O)c2ccc(NC3=C(Cl)C(=O)N(Cc4ccccc4)C3=O)cc2)cc1")
"24.8 µM"
>>> result("COc1ccc(NC(=O)CC/C(CC(=O)c2ccco2)=N/Nc2ccc([N+](=O)[O-])cc2[N+](=O)[O-])cc1")
"> 100 µM"
>>> result("COc1ccc(C(=O)/C=C/c2ccc(Cl)cc2)cc1S(N)(=O)=O")
"24.9 µM"
>>> result("Cc1ccc(CCC(=O)Nc2ncc(Cc3cc(Cl)ccc3Cl)s2)o1")
"> 100 µM"
>>> result("CN(C)C1(C#N)CCC2(CC1)OCCO2")
"> 100 µM"
>>> result("CN1CCC(O)C(CNC23CC4CC(CC(C4)C2)C3)C1 (centres undefined)")
"> 100 µM"
>>> result("CCOC(=O)C(=[N+]=[N-])C(=O)C[N+]12CCN(CC1)CC2")
"> 100 µM"
>>> result("COc1cc(Oc2nc3ccccc3nc2C(=O)O)cc(OC)c1OC")
"> 100 µM"
>>> result("COc1ccc(CCNc2nc3ccccc3c3[nH]c4ccccc4c23)cc1OC")
"3.8 µM"
>>> result("CCCC(Sc1nc(N)nc2nc[nH]c12)C(=O)O (centres undefined)")
"> 100 µM"
>>> result("COc1c(O)c2ccccc2c2cc(O)ccc12")
"5.24 µM"
>>> result("CN(C(=O)C12C3C4(C(=O)O)C1(C(=O)N(C)C(C)(C)C)C1C2(C(=O)O)C3(C(=O)N(C)C(C)(C)C)C14C(=O)N(C)C(C)(C)C)C(C)(C)C (centres undefined)")
"> 100 µM"
>>> result("COc1cc2c(cc1OC)C1CN3C(=O)CCC3C(O)C1c1cc(OC)c(OC)cc1-2 (centres undefined)")
"> 100 µM"
>>> result("COc1c2occc2c(OC)c2c(=O)c(S(=O)(=O)NC(=O)Nc3ccc(Cl)cc3)coc12")
"> 10 µM"
>>> result("O=C(O)CC(NC(=O)Nc1ccc([N+](=O)[O-])cc1)C(=O)Nc1ccc([N+](=O)[O-])cc1 (centres undefined)")
"> 100 µM"

----------
Tested on: CAKI-1 renal
Assay: NCI tumour cell line growth inhibition, 48 h
measured property: TGI (µM)

>>> quantitative_readout("O=c1ccc2nc(-c3ccccc3)nn(-c3ccccc3)c-2c1")
2.89
>>> quantitative_readout("N#Cc1c(N)nn(C(=O)c2ccc(NC(=O)c3ccccn3)cc2)c1-c1ccc(Cl)cc1")
6.3
>>> quantitative_readout("Cc1ncc(C(=O)Nc2ccc(CN3CCN(C)CC3)c(C(F)(F)F)c2)cc1C#Cc1c(N)ncc2ccc(C#N)cc12")
7.22

----------
Tested on: BT-549 breast
Assay: NCI tumour cell line growth inhibition, 48 h
Known TGI of a selection of compounds
measured property: TGI (µM)

>>> quantitative_readout("CCN(CC)CCn1c(=N)n(CC(O)c2ccc(Cl)c(Cl)c2)c2ccccc21 (stereo not given)")
28
>>> quantitative_readout("COc1ccc(CCNc2nc3ccccc3c3[nH]c4ccccc4c23)cc1OC")
26.3
>>> quantitative_readout("COc1cc(/C=C2\\C[C@H]3[C@@H]4CC=C5C[C@@H](N6CCCC6)CC[C@]5(C)[C@H]4CC[C@]3(C)[C@H]2O)cc(OC)c1OC")
30.1
>>> quantitative_readout("COc1cc2c(cc1OCCCC(=O)Nc1cc(C(=O)Nc3cc(C(=O)Nc4cc(C(=O)NCCCN(C)C)n(C)c4)n(C)c3)n(C)c1)N=C[C@@H]1CCCN1C2=O")
4.91
>>> quantitative_readout("COc1c(O)c2ccccc2c2cc(O)ccc12")
7.04
>>> quantitative_readout("COc1ccc(C(=O)/C=C/c2ccc(Cl)cc2)cc1S(N)(=O)=O")
7.33
>>> quantitative_readout("COc1cc(C2c3cc4c(cc3C(O)C3CCC(=O)N23)OCO4)cc(OC)c1OC (stereo not given)")
66.1
>>> quantitative_readout("COc1cc[c]([Hg][Cl])cc1")
9.16

----------
Test system: UACC-62 melanoma
Assay: NCI tumour cell line growth inhibition, 48 h
measured property: TGI

>>> result("CC(=O)Nc1ccc(S(=O)(=O)Nc2nnc(S(N)(=O)=O)s2)cc1")
"> 100 µM"
>>> result("O=P(O)(O)OC1C(OP(=O)(O)O)C(OP(=O)(O)O)C(OP(=O)(O)O)C(OP(=O)(O)O)C1OP(=O)(O)O (stereo not given)")
"> 2000 µM"
>>> result("CCCOC(=O)C1CCC(=O)N1C(=O)C(Cl)Cl (stereo not given)")
"> 100 µM"
>>> result("CC(=O)OCC1OC(n2cc(F)c(=O)[nH]c2=O)C(OC(C)=O)C1OC(C)=O (stereo not given)")
"> 100 µM"
>>> result("CC1=NN(c2cccc(Cl)c2)C2(C1)C(Cl)C(=O)N2c1nc2ccccc2s1 (stereo not given)")
"> 100 µM"
>>> result("CCOC(=O)C(C(=O)c1ccccc1-c1ccccc1C(=O)O)=P(c1ccccc1)(c1ccccc1)c1ccccc1")
"33 µM"
>>> result("O=C1COC(c2ccccc2O)=NN1CCCN1CCCC1")
"> 100 µM"
>>> result("O=c1c2ccccc2oc2c1ccc1ncccc12")
"73.6 µM"
>>> result("Cc1nc2c(cnn2-c2ccnc3c(C(F)(F)F)cccc23)c(=O)o1")
"> 100 µM"
>>> result("Cc1c(-c2ccccc2)c(C#N)c2nnn(-c3ccccc3)c(=O)n12")
"> 100 µM"

----------
Test system: SNB-75 CNS
Assay: NCI tumour cell line growth inhibition, 48 h
Known GI50 of a selection of compounds
measured property: GI50

>>> result("C(=N\\Nc1ncc(-c2cc3cc4c(cc3o2)OCO4)s1)/c1c[nH]c2ccccc12")
"1.4 µM"
>>> result("COC12C=C/C(=C(/C(=O)OCc3ccncn3)C(=O)CCCCCCCCC3(OC)C=C/C(=C(/C(=O)OCc4ccncn4)C(=O)CCCCCCCC1)O3)O2")
"1.52 µM"
>>> result("O=C(Nc1ccc(Cl)cc1)NS(=O)(=O)c1ccc2c(c1)CCC2")
"28.1 µg/mL"
>>> result("Cc1c(CNc2ccc(Cl)c(C(=O)NC(CC(=O)O)C(=O)O)c2)ccc2nc(N)nc(N)c12 (centres undefined)")
"122 µM"
>>> result("COc1ccc(CCNc2nc3ccccc3c3[nH]c4ccccc4c23)cc1OC")
"14.3 µM"
>>> result("CCN(CC)CCCCCCCCNc1c2ccc(Cl)cc2nc2ccc(OC)cc12")
"1.49 µM"
>>> result("FC(F)(F)c1ccc2nc(-c3nc(-c4ccccc4)n4ccccc34)[nH]c2c1")
"1.68 µM"
>>> result("CCN(CC)CCn1c(=N)n(CC(O)c2ccc(Cl)c(Cl)c2)c2ccccc21 (centres undefined)")
"10.6 µM"
>>> result("COc1ccc(CN2CCc3c(Cl)nc(N)nc3C2=O)c(OC)c1")
"14.4 µM"
